Provenance of the data: ChEMBL document CHEMBL5390317

test system: Staphylococcus aureus; experiment: Antibacterial activity against Staphylococcus aureus ATCC 29213 assessed as inhibition in bacterial growth incubated for 20 to 24 hrs by CLSI based broth microdilution method; format: functional; details: Staphylococcus aureus, ATCC 29213; time 20-24 hrs; read-out: MIC
MEASUREMENT_LABEL: MIC (mg/L)
Give bare numbers, in mg/L.

Recorded results for 2 compounds are shown here.
NC1(COc2cc(F)c3c(c2)CC(CNCCC2CN(c4cnc5c(n4)NC(=O)CO5)C(=O)O2)C3)CC1 (centres undefined) = 0.125
N#CCOc1cc(F)c2c(c1)CC(CNCCC1CN(c3ccc4c(n3)NC(=O)CO4)C(=O)O1)C2 (centres undefined) = 0.125

Quote MIC with test system Staphylococcus aureus for N#Cc1cc(OCC2CNC2)cc2c1CC(CNCCC1CN(c3ccc4c(n3)NC(=O)CO4)C(=O)O1)C2 (centres undefined)
0.5
